The reported numbers originate from patent US20200109188A1.

TARGET OF ASSAY: HA of ca A/Perth/16/09 (H3N2) virus (influenza A virus)
PROTOCOL SUMMARY: cell-based or functional assay
METRIC: Neutralization IC50, H3-Perth09 (µg/mL)
Give the value in µg/mL but do not write µg/mL after it.

q: Recall and state the measured Neutralization IC50, H3-Perth09 for Antibody 10 (antibody, V domains shown) VH: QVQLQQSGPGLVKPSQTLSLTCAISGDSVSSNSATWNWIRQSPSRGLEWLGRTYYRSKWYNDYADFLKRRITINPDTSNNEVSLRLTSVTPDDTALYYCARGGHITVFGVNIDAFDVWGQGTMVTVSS VL: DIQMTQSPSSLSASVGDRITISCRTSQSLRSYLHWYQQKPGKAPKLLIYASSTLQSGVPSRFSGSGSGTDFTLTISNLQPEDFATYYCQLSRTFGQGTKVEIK .
a: 2.56
